target: BRD2 (Homo sapiens (Human), UniProt P25440)
Sequence (P25440 60-472): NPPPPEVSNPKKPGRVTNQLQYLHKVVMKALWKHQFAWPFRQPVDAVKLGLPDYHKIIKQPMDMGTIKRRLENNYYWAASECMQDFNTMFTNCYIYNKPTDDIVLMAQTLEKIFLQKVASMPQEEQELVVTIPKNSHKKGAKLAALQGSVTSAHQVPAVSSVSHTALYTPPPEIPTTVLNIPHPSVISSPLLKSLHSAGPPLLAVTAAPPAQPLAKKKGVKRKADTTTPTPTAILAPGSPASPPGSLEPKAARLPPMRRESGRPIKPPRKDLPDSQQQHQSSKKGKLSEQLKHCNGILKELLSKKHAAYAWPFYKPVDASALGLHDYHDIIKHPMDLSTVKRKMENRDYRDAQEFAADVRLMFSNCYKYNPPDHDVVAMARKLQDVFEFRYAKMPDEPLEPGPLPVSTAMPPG
experimental-endpoint: pIC50
# pIC50: negative log10 of molar concentration; output just the value

Cn1c(-c2cccn(C)c2=O)cc2c1C(c1ccc(Cl)cc1)N(c1cc(Cl)c(=O)n(C)c1)C2=O (stereo not shown) = 7.05
Cc1cc(N2C(=O)c3cc(-c4ccnc(C(F)(F)F)n4)n(C)c3C2c2ccc(Cl)cc2)cn(C)c1=O (stereo not shown) = 7.12
COc1ncc(-c2cc3c(n2C)C(c2ccc(Cl)cc2)N(c2cc(C)c(=O)n(C)c2)C3=O)c(OC)n1 (stereo not shown) = 7.39
Cc1cc(N2C(=O)c3cc(-c4cccn(C)c4=O)[nH]c3C2c2ccc(Cl)cc2)cn2c(C)nnc12 (stereo not shown) = 7.42
Cc1cn(C)c2c1C(=O)N(c1cc(C)c3nnn(C)c3c1)C2c1ccc(Cl)cc1 (stereo not shown) = 7.70

Input line: Entry Cc1cc(N2C(=O)c3cc(-c4ccn(C)c(=O)c4)n(C)c3C2c2ccc(Cl)cc2)cn(C)c1=O (stereo not shown) has what pIC50?
Output line: 7.66

Input line: Entry CCOC(=O)Nc1cn(C)c2c1C(=O)N(c1cc(C)c3nnn(C)c3n1)C2c1ccc(Cl)cc1 (stereo not shown) has what pIC50?
Output line: 7.82

Input line: Entry Cc1cc(N2C(=O)c3ccn(C)c3C2c2ccc(C#N)cc2)cn(C)c1=O (stereo not shown) has what pIC50?
Output line: 6.56

Input line: Entry COc1cccc(-c2cc3c(n2C)C(c2ccc(Cl)cc2)N(c2cc(C)c(=O)n(C)c2)C3=O)n1 (stereo not shown) has what pIC50?
Output line: 7.10

Input line: Entry Cn1cc(N2C(=O)c3cc(-c4cccn(C)c4=O)n(C4CC4)c3C2c2ccc(Cl)cc2)cc(Cl)c1=O (stereo not shown) has what pIC50?
Output line: 7.30

Input line: Entry Cn1ccc2c1C(c1ccccc1)N(c1cc(Cl)c(=O)n(C)c1)C2=O (stereo not shown) has what pIC50?
Output line: 6.36

Input line: Entry Cc1cc(N2C(=O)c3cc(-c4cccc(=O)n4C)n(C)c3C2c2ccc(Cl)cc2)cn(C)c1=O (stereo not shown) has what pIC50?
Output line: 7.04

Input line: Entry Cc1cc(N2C(=O)c3ccn(C)c3C2c2ccccc2)cn(C)c1=O (stereo not shown) has what pIC50?
Output line: 6.18

Input line: Entry Cc1cn(C)c2c1C(=O)N(c1cc(C)c3nnn(C)c3n1)C2c1ccc(Cl)cc1 (stereo not shown) has what pIC50?
Output line: 6.80

----------
Test system: THP-1
Experiment: Cell growth inhibition assay (CellTiter-Glo), THP-1
Assay type: cell-based, human
Conditions: THP-1 cells, 4 days, total growth inhibition
Method: Cell Growth Inhibition Assay The human leukemia cell lines MV-4-11, THP-1 and K-562 were employed to characterize the effect of BET inhibitors on cellular proliferation and viability. […] Compound-mediated suppression of cell proliferation/viability was assessed by quantification of cellular ATP levels using the CellTiter-Glo (CTG) reagent (Promega). […] Dose-response effects were assessed by 3-fold serial dilutions of the test compound, starting at 10 μM. […]
Each record here notes measured THP-1 TGI.
Write the number in nM without appending the unit.

Here are 3 molecules together with their reported answers.
Cn1ccc2c1C(c1ccc(Cl)cc1)N(c1cc(Cl)c(=O)n(C)c1)C2=O (stereo not shown) = 238
CC(=O)N1CC(n2cc(C3CC3)c3c2C(c2ccc(Cl)cc2)N(c2cc(C)c4nnn(C)c4n2)C3=O)C1 (stereo not shown) = 2.38
Cc1cc(N2C(=O)c3cc(-c4ccn(C)c(=O)c4)n(C)c3C2c2ccc(Cl)cc2)cn(C)c1=O (stereo not shown) = 213

In the following, a different molecule is considered.
Input line: Entry Cc1cc(N2C(=O)c3cc(-c4cccn(C)c4=O)n(C4CC4)c3C2c2ccc(Cl)cc2)cn(C)c1=O (stereo not shown) has what THP-1 TGI?
Output line: 167.5

----------
Tested on: THP-1
Test: Cell growth inhibition assay (CellTiter-Glo), THP-1
Type: cell-based, human
Settings: THP-1 cells, 4 days, total growth inhibition
Description: Cell Growth Inhibition Assay The human leukemia cell lines MV-4-11, THP-1 and K-562 were employed to characterize the effect of BET inhibitors on cellular proliferation and viability. […] Compound-mediated suppression of cell proliferation/viability was assessed by quantification of cellular ATP levels using the CellTiter-Glo (CTG) reagent (Promega). […] Dose-response effects were assessed by 3-fold serial dilutions of the test compound, starting at 10 μM. […]
experimental-endpoint: THP-1 TGI (µM)
Write the number in µM without appending the unit.

Here are 6 molecules together with their reported answers.
Cc1cc(N2C(=O)c3cc(C4CC4)n(C)c3C2c2ccc(Cl)cc2)cn(C)c1=O (stereo not drawn) [Example 68] = 0.096
Cc1cc(N2C(=O)c3cc(-c4cccnc4O)[nH]c3C2c2ccc(Cl)cc2)cn2c(C)nnc12 (stereo not drawn) [Example 26] = 0.34
CNC(=O)Nc1cn(C)c2c1C(=O)N(c1cc(C)c3nnc(C(F)F)n3n1)C2c1ccc(Cl)cc1 (stereo not drawn) [Example 111] = 0.0301
Cc1cc(N2C(=O)c3cc[nH]c3C2c2ccc(Cl)cc2)cn2c(C)nnc12 (stereo not drawn) [Example 21] = 0.178
Cc1cn(C)c2c1C(=O)N(c1cc(C)c3nnc(C)n3c1)C2c1ccc(Cl)cc1 (stereo not drawn) [Example 33] = 0.0356
CCOC(=O)n1c(-c2cccnc2OC)c(C)c2c1C(c1ccc(Cl)cc1)N(c1cc(C)c3nnc(C)n3c1)C2=O (stereo not drawn) [Example 124] = 0.0158

Input line: Entry COc1ncc(-c2cc3c(n2C)[C@@H](c2ccc(Cl)cc2)N(c2cc(C)c(=O)n(C)c2)C3=O)c(OC)n1 [Example 54] has what THP-1 TGI?
Output line: 0.0415

Input line: Entry Cc1cc(N2C(=O)c3cc(-c4cccc(=O)n4C)n(C4CC4)c3C2c2ccc(Cl)cc2)cn(C)c1=O (stereo not drawn) [Example 63] has what THP-1 TGI?
Output line: 0.788

Input line: Entry Cc1cc(N2C(=O)c3cc(-c4cccc(N(C)C)n4)n(C)c3C2c2ccc(Cl)cc2)cn(C)c1=O (stereo not drawn) [Example 51] has what THP-1 TGI?
Output line: 0.165

----------
Each record here notes measured pIC50.
biological target: BRD4-NUT-fusion (Homo sapiens); experiment: Nut-foci formation assay in HCC2494 NUT midline carcinoma cells; conditions: 24 hours, nuclear BRD4-NUT foci by immunofluorescence microscopy, read-out: HCS Brd4-NUT IC50
# pIC50: negative log10 of molar concentration; output just the value

Here are 3 molecules together with their reported answers.
Cc1cc(N2C(=O)c3cc(-c4ccc(N(C)C)nc4)n(C)c3C2c2ccc(Cl)cc2)cn(C)c1=O (stereo not shown) = 7.13
Cc1cn(C)c2c1C(=O)N(c1cc(C)c3nnc(C)n3c1)C2c1ccc(Cl)cc1 (stereo not shown) = 8.02
COc1ncc(-c2cc3c(n2C)[C@@H](c2ccc(Cl)cc2)N(c2cc(C)c(=O)n(C)c2)C3=O)c(OC)n1 = 7.57

Input line: Entry Cn1c(-c2ccc(=O)n(C)c2)cc2c1C(c1ccc(Cl)cc1)N(c1cc(Cl)c(=O)n(C)c1)C2=O (stereo not shown) has what pIC50?
Output line: 5.30

Input line: Entry Cc1cc2c(n1C)[C@@H](c1ccc(Cl)cc1)N(c1cc(Cl)c(=O)n(C)c1)C2=O has what pIC50?
Output line: 7.95

Input line: Entry Cc1cc(N2C(=O)c3cc(-c4ccn(C)c(=O)c4)n(C)c3C2c2ccc(Cl)cc2)cn(C)c1=O (stereo not shown) has what pIC50?
Output line: 7.01

Input line: Entry COc1ncc(-c2cc3c(n2C)C(c2ccc(Cl)cc2)N(c2cc(Cl)c(=O)n(C)c2)C3=O)c(OC)n1 (stereo not shown) has what pIC50?
Output line: 7.14

Input line: Entry Cn1ccc2c1[C@@H](c1ccc(Cl)cc1)N(c1cc(Cl)c(=O)n(C)c1)C2=O has what pIC50?
Output line: 8.00

Input line: Entry Cc1cc(N2C(=O)c3ccn(C4CC4)c3C2c2ccc(Cl)cc2)cn(C)c1=O (stereo not shown) has what pIC50?
Output line: 6.87

Input line: Entry Cc1cn(C)c2c1C(=O)N(c1cc(C)c(=O)n(C)c1)C2c1ccc(Cl)cc1 (stereo not shown) has what pIC50?
Output line: 7.57

Input line: Entry Cn1ccc2c1C(c1ccc(Cl)cc1)N(c1ccc(=O)n(C)c1)C2=O (stereo not shown) has what pIC50?
Output line: 6.14

Input line: Entry COc1ncc(-c2cc3c(n2C)C(c2ccc(Cl)cc2)N(c2cc(C)c(=O)n(C)c2)C3=O)cn1 (stereo not shown) has what pIC50?
Output line: 6.84

Input line: Entry COc1ncc(-c2cc3c(n2C)[C@@H](c2ccc(Cl)cc2)N(c2cc(C)c(=O)n(C)c2)C3=O)cn1 has what pIC50?
Output line: 7.41

Just for reference, patent US9550796B2 is where these values come from.
